# Tested on: male rats
# Experiment Summary: 28-day repeated dose study, plasma metabolite profiling (GC-MS, LC-MS), male rats
# Format: in vivo, rat
# Test Settings: day 14
# Description: Drinking water was also offered ad libitum.
Parameter: Palmitoleic acid (C16:cis[9]1), plasma, treatment ratio versus control. Scope: all listed entries.
Readout: Palmitoleic acid (C16:cis[9]1), plasma, treatment ratio versus control

1. CCCCOCCO [2-Butoxyethanol] : 0.77
2. C#CC1(O)CCC2C3CCc4cc(O)ccc4C3CCC21C (stereo not drawn) [17-alpha-Ethynylestradiol] : 1.28
3. CC(=O)CCC(C)=O [2,5-hexanedione] : 1.03

====

Parameter: Oleic acid (C18:cis[9]1), plasma, treatment ratio versus control. Scope: all listed entries.
# Test system: male rats
# Experiment Summary: 28-day repeated dose study, plasma metabolite profiling (GC-MS, LC-MS), male rats
# Assay type: in vivo, rat
# Test Settings: day 14
Marks after values point to notes of the source that are not given here.
Readout: Oleic acid (C18:cis[9]1), plasma, treatment ratio versus control

1. CC(=O)CCC(C)=O [2,5-hexanedione] : 0.81*
2. CCCCOCCO [2-Butoxyethanol] : 0.8*
3. CC(C=O)Cc1ccc(C(C)(C)C)cc1 (stereo not shown) [Lysmeral, 2-Methyl-3(4-tert.-butylphenyl)-propanal] : 1.01
4. Cc1ncc[nH]1 [2-Methylimidazole] : 0.82*

====

Parameter: Palmitoleic acid (C16:cis[9]1), plasma, treatment ratio versus control. Scope: all listed entries.
# Tested on: male rats
# Experiment Summary: 28-day repeated dose study, plasma metabolite profiling (GC-MS, LC-MS), male rats
# Type: in vivo, rat
# Test Settings: day 7
Readout: Palmitoleic acid (C16:cis[9]1), plasma, treatment ratio versus control

1) CC(C=O)Cc1ccc(C(C)(C)C)cc1 (stereo not drawn) : 0.66
2) CCCCOCCO : 0.94
3) Cc1ncc[nH]1 : 0.81
4) C#CC1(O)CCC2C3CCc4cc(O)ccc4C3CCC21C (stereo not drawn) : 0.2

====

Parameter: Oleic acid (C18:cis[9]1), plasma, treatment ratio versus control. Scope: all listed entries.
# Tested on: male rats
# Experiment Summary: 28-day repeated dose study, plasma metabolite profiling (GC-MS, LC-MS), male rats
# Type: in vivo, rat
# Test Settings: day 7
Readout: Oleic acid (C18:cis[9]1), plasma, treatment ratio versus control

1) CCCCOCCO : 0.98
2) CC(C=O)Cc1ccc(C(C)(C)C)cc1 (stereo not shown) : 0.87

====

Parameter: Palmitoleic acid (C16:cis[9]1), plasma, treatment ratio versus control. Scope: all listed entries.
# Test system: male rats
# Experiment Summary: 28-day repeated dose study, plasma metabolite profiling (GC-MS, LC-MS), male rats
# Type: in vivo, rat
# Test Settings: day 14
Marks after values point to notes of the source that are not given here.
Readout: Palmitoleic acid (C16:cis[9]1), plasma, treatment ratio versus control

1. COCCO [2-Methoxyethanol] : 0.39*
2. CC(C=O)Cc1ccc(C(C)(C)C)cc1 (stereo not drawn) [Lysmeral, 2-Methyl-3(4-tert.-butylphenyl)-propanal] : 0.55*
3. Cc1ncc[nH]1 [2-Methylimidazole] : 0.77*
